Items are presented alongside their recorded % Activity.
Molecular target: GST-Bfl-1 (Homo sapiens)
Construct: lacking their C-terminal transmembrane domains (about the last 20 amino acids) (“ΔTM”); made in house; host or cells: XL-1 Blue E. coli, pGEX 4T-1
Sequence (Q16548 1-155 limits assumed): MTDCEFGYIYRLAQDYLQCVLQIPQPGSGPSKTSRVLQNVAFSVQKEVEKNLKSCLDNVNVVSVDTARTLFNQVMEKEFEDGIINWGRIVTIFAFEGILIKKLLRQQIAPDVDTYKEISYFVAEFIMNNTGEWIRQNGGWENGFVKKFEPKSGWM
Experiment: Bfl-1/FITC-Bid BH3 competitive fluorescence polarization assay
Format: binding
Conditions: primary HTS hits, MLSCN library (PubChem SIDs), Table 5B
Description: A FPA was performed to determine the binding affinity of FITC-Bid BH3 peptide to Bcl-2 proteins. […] IC50 determinations were performed using GraphPad Prism software (GraphPad, Inc., San Diego, Calif.). […] Fluorescence polarization was measured after 10 min. Compounds that reduced the fluorescence polarization by 50% were considered hits.

>  <molecule>
COC(=O)c1[nH]c2ccc(C)cc2c1NC(=O)CCN1CCN(Cc2ccc3c(c2)OCO3)CC1

>  <% Activity / %>
69.7

$$$$
>  <molecule>
Cc1ccc2c(Cl)cc(Cl)c(OCC(=O)NCc3ccco3)c2n1

>  <% Activity / %>
56.5

$$$$
>  <molecule>
CCN1CCN(c2ccc(NC(=O)c3cccc4ncccc34)cc2)CC1

>  <% Activity / %>
76.3

$$$$
>  <molecule>
CCS(=O)(=O)NCc1ccc2c(c1)cc(C)n2C

>  <% Activity / %>
51.8

$$$$
>  <molecule>
O=C(c1cnccn1)N1CCc2ccccc21

>  <% Activity / %>
80.1

$$$$
>  <molecule>
Cc1c(C(=O)OCC2CCCO2)[nH]c2c1C(=O)CC(c1ccco1)C2 (centres unmarked)

>  <% Activity / %>
54.3

$$$$
>  <molecule>
Cc1cc(C)c2cc3c(ccn3C3OC[C@H](O)[C@H](O)[C@H]3O)cc2n1 (some centres unmarked)

>  <% Activity / %>
52.1

$$$$
>  <molecule>
O=C(COc1ccccc1C(=O)N/N=C/c1ccc(O)c(O)c1)N/N=C/c1ccc(O)c(O)c1

>  <% Activity / %>
70.9

$$$$
>  <molecule>
c1nnnn1C12CC3CC(CC(C3)C1)C2

>  <% Activity / %>
60.7

$$$$
>  <molecule>
CCCC1=C(C(=O)OCC)C(c2cc(Cl)cc(OC)c2OCC(=O)OCC)NC(=O)N1 (centres unmarked)

>  <% Activity / %>
50.9

$$$$
>  <molecule>
O=C1c2ccccc2C(=O)N1CC#CCN1CCN(C2CCCCC2)CC1

>  <% Activity / %>
56.3

$$$$
>  <molecule>
Cc1ccc(S(=O)(=O)Cc2ccc(C(=O)O)o2)cc1

>  <% Activity / %>
66.5

$$$$
>  <molecule>
COc1ccc(NC(=O)c2cnn3c(C(F)(F)F)cc(-c4ccco4)nc23)cc1OC

>  <% Activity / %>
52

$$$$
>  <molecule>
O=C(NCc1ccccn1)c1ccc2nc(-c3ccco3)c(-c3ccco3)nc2c1

>  <% Activity / %>
107.1

$$$$
>  <molecule>
COc1ccc(S(=O)(=O)N2Cc3ccccc3CC2C(=O)O)cc1 (centres unmarked)

>  <% Activity / %>
53

$$$$
>  <molecule>
O=C(Nc1cccnc1)c1ccc(S(=O)(=O)N2CCCCCC2)cc1

>  <% Activity / %>
88.4

$$$$
>  <molecule>
O=C(N/N=C/c1ccc(F)cc1)c1cc(-c2ccco2)nc2ccccc12

>  <% Activity / %>
84.8

$$$$
>  <molecule>
Cn1c(=O)n(C)c2cc(S(=O)(=O)Nc3ccccc3O)ccc21

>  <% Activity / %>
52.9

$$$$
>  <molecule>
COc1ccc2c(c1)c(=O)oc1cc(OCC(=O)N3CCC(C)CC3)ccc12

>  <% Activity / %>
104.8

$$$$
>  <molecule>
CC(=O)c1c(CC(=O)O)nn(-c2nc3ccccc3s2)c1O

>  <% Activity / %>
69

$$$$
>  <molecule>
Clc1ccc2nc(CN3CCCc4ccccc43)cn2c1

>  <% Activity / %>
61.3

$$$$
>  <molecule>
Cc1cccc(OCC(=O)Nc2ccc(S(=O)(=O)N3CCCC3)cc2)c1

>  <% Activity / %>
79.2

$$$$
>  <molecule>
COc1ccc(-c2coc3c(CN4CCCCC4)c(O)c(CN4CCCCC4)c(O)c3c2=O)cc1

>  <% Activity / %>
82.5

$$$$
>  <molecule>
COc1ccccc1NCCC(=O)OCC(=O)NCc1ccco1

>  <% Activity / %>
85.2

$$$$
>  <molecule>
O=C(NCCN1CCCCCC1)C1CCC(CNS(=O)(=O)c2cccc3cccnc23)CC1 (centres unmarked)

>  <% Activity / %>
51.8

$$$$
>  <molecule>
Cc1ccc(C(=O)ONc2ccc(/N=N/C(=O)c3ccccc3O)cc2)cc1

>  <% Activity / %>
108.7

$$$$
>  <molecule>
CC(=O)c1sc2nc(SCC(=O)N3CCCCC3)nc(O)c2c1C

>  <% Activity / %>
57

$$$$
>  <molecule>
CSc1nnc(-c2ccco2)c(-c2ccco2)n1

>  <% Activity / %>
107

$$$$
>  <molecule>
Nc1ccc(N2CCN(C(=O)c3cccs3)CC2)cc1

>  <% Activity / %>
57.8

$$$$
>  <molecule>
Cc1ccc2nc(O)c(C3C(C#N)=C(N)Oc4c3ccc3cccnc43)cc2c1 (centres unmarked)

>  <% Activity / %>
55

$$$$
>  <molecule>
Cc1ccc(OCCSc2nnc(-c3ccncc3)n2C)cc1

>  <% Activity / %>
68.9

$$$$
>  <molecule>
O=C(N/N=C1\C(=O)c2cccc3cccc1c23)c1ccc(Cl)cc1

>  <% Activity / %>
68.6

$$$$
>  <molecule>
O=C(c1cc2c(s1)CCC2)N1CCN(c2ccccc2)CC1

>  <% Activity / %>
71.6

$$$$
>  <molecule>
CCn1ccc(C(=O)Nc2ccc(S(=O)(=O)Nc3ccccc3OC)cc2)n1

>  <% Activity / %>
82

$$$$
>  <molecule>
O=C(COC(=O)c1ccc(S(=O)(=O)NCc2ccco2)cc1)NCC1CCCCC1

>  <% Activity / %>
60.3

$$$$
